target: furin (Homo sapiens, UniProt P09958); construct: made in house; host or cells: Drosophila S2 cells (Invitrogen expression system); test: biochemical; conditions: furin, Pyr-RTKR-AMC substrate; alanine scanning mutagenesis of the H5 furin cleavage sequence (Table 2); read-out: Ki
Sequence (P09958 108-794 limits assumed): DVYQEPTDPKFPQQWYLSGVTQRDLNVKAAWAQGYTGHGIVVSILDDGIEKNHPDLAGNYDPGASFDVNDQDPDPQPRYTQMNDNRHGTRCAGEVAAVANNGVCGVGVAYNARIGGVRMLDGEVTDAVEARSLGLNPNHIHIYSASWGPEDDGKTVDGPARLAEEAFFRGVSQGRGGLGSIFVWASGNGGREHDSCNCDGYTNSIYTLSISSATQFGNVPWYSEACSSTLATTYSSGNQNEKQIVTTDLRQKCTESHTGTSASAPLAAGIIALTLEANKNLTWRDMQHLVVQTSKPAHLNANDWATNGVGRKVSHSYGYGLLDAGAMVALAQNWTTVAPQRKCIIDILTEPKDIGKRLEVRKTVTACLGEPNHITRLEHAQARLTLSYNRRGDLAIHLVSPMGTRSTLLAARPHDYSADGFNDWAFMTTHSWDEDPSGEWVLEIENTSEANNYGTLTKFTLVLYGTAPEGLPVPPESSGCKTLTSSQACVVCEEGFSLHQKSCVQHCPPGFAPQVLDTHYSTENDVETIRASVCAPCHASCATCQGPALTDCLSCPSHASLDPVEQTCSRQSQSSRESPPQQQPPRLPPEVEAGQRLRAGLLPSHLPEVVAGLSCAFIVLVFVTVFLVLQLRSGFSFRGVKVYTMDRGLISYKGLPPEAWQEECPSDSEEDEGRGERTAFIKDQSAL
Non-standard residues stand in square brackets, D forms with d. Residues, ends and D or L forms follow the SMILES beside them. Sar = CNCC(=O)O
Quick list: Ki per entry.

Illustrative cases are given below, each with its answer.
[[record]]
molecule = "CC(C)[C@H](NC(=O)[C@H](CCCNC(=N)N)NC(=O)[C@H](CCCCN)NC(=O)[C@H](CCCCN)NC(=O)[C@H](CCCNC(=N)N)NC(=O)[C@H](C)NC(=O)[C@H](C)NC(=O)[C@H](CCC(=O)O)NC(=O)[C@H](CCCNC(=N)N)NC(=O)[C@@H]1CCCN1C(=O)[C@@H](N)[C@@H](C)O)C(N)=O (H-TPREAARKKRV-NH2)"
observed = "> 100 nM"

[[record]]
molecule = "C[C@H](NC(=O)[C@H](CCCCN)NC(=O)[C@H](CCCNC(=N)N)NC(=O)[C@H](CCCNC(=N)N)NC(=O)[C@H](CCCNC(=N)N)NC(=O)[C@H](CCC(=O)O)NC(=O)[C@H](CCCNC(=N)N)NC(=O)[C@@H]1CCCN1C(=O)[C@@H](N)[C@@H](C)O)C(=O)N[C@@H](C)C(=O)N(C)CC(N)=O (H-TPRERRRKAA[Sar]-NH2)"
observed = "> 100 nM"


From here, focus on the item given below.
Query C[C@H](NC(=O)[C@H](C)NC(=O)[C@H](CCCNC(=N)N)NC(=O)[C@H](CCC(=O)O)NC(=O)[C@H](CCCNC(=N)N)NC(=O)[C@@H]1CCCN1C(=O)[C@@H](N)[C@@H](C)O)C(=O)N[C@@H](CCCCN)C(=O)N[C@@H](CCCCN)C(=O)N[C@@H](CCCNC(=N)N)C(=O)N(C)CC(N)=O (H-TPRERAAKKR[Sar]-NH2) yields Ki of > 100 nM
